- System: HCT-8
- protocol-details: Cell cycle arrest in human HCT8 cells assessed as accumulation at G2/M phase at 50 ug/mL after 24 hrs by propidium iodide staining-based flow cytometric analysis (reference value: 13.83%)
- Format: ADME
- assay-conditions: hct-8, 24 h
The following compounds are shown together with reported Activity values.
Provide only the numeric value, understood in %.

CCOc1ccc(/C=C/C(N)(S)NNC(=O)c2ccncc2)cc1 (stereo not drawn); 17.5

### Prompt Please supply the value of reported Activity for the item NC(S)(/C=C/c1ccccc1)NNC(=O)c1ccncc1 (stereo not drawn)
### Response 18.72

### Prompt Please supply the value of reported Activity for the item "COc1ccc(/C=C/C(N)=S)cc1"
### Response 23.56

### Prompt Please supply the value of reported Activity for the item "Cc1ccc(/C=C/C(N)=S)cc1"
### Response 47.84

### Prompt Please supply the value of reported Activity for the item Cc1ccc(/C=C/C(N)(S)NNC(=O)c2ccncc2)cc1 (stereo not drawn)
### Response 11.15

### Prompt Please supply the value of reported Activity for the item "NNC(=O)c1ccncc1"
### Response 15.01

### Prompt Please supply the value of reported Activity for the item COc1ccc(/C=C/C(N)(S)NNC(=O)c2ccncc2)cc1 (stereo not drawn)
### Response 13.78

### Prompt Please supply the value of reported Activity for the item "CCOc1ccc(/C=C/C(N)=S)cc1"
### Response 15.41

---

The following molecules are shown together with reported Activity values.
- Tested on: HCT-8
- protocol-details: Cell cycle arrest in human HCT8 cells assessed as accumulation at S phase at 50 ug/mL after 24 hrs by propidium iodide staining-based flow cytometric analysis (reference value: 39.43%)
- Format: ADME
- assay-conditions: hct-8, 24 h
Provide only the numeric value, understood in %.

CCOc1ccc(/C=C/C(N)(S)NNC(=O)c2ccncc2)cc1 (stereo not drawn); 22.43
COc1ccc(/C=C/C(N)(S)NNC(=O)c2ccncc2)cc1 (stereo not drawn); 37.52
NNC(=O)c1ccncc1; 38.48
CCOc1ccc(/C=C/C(N)=S)cc1; 22.57
Cc1ccc(/C=C/C(N)=S)cc1; 26.63
COc1ccc(/C=C/C(N)=S)cc1; 23.26
Cc1ccc(/C=C/C(N)(S)NNC(=O)c2ccncc2)cc1 (stereo not drawn); 13.1

### Prompt Report the value of Activity obtained on HCT-8 for NC(S)(/C=C/c1ccccc1)NNC(=O)c1ccncc1 (stereo not drawn) .
### Response 25.9

---

- Tested on: Escherichia coli
- protocol-details: Antibacterial activity against Escherichia coli 1777 assessed as growth inhibition at 1 mg/mL after 24 hrs by agar-disk diffusion technique
- Format: functional, organism-based
The source made the active and inactive calls. The rule behind the calls is not given here.
# valid calls are true (1) = active, false (0) = inactive; nothing else

CCOc1ccc(/C=C/C(N)(S)NNC(=O)c2ccncc2)cc1 (stereo not given); false (0)
COc1ccc(/C=C/C(N)=S)cc1; true (1)
NC(=S)/C=C/c1ccccc1; true (1)
NNC(=O)c1ccncc1; false (0)

Please turn your attention to the following entry.
### Prompt Recorded call for NC(S)(/C=C/c1ccc(Cl)cc1)NNC(=O)c1ccncc1 (stereo not given) ?
### Response true (1)

---

- protocol-details: Induction of apoptosis in human HCT8 cells assessed as viable cells at 50 ug/mL after 24 hrs by Annexin V-FITC and propidium iodide staining-based flow cytometric analysis (reference value: 87.7%)
- Format: cell-based, HCT-8
- assay-conditions: read-out: Activity
The following compounds are shown together with reported viability at 24 h, 50 ug/mL values.
Provide only the numeric value, understood in %.

Here are 4 compounds together with their reported answers.
COc1ccc(/C=C/C(N)(S)NNC(=O)c2ccncc2)cc1 (stereo not given); 70.7
COc1ccc(/C=C/C(N)=S)cc1; 63.8
NC(=S)/C=C/c1ccccc1; 28.3
NC(S)(/C=C/c1ccccc1)NNC(=O)c1ccncc1 (stereo not given); 67.9

// next entry
### Prompt Please supply the value of reported viability at 24 h, 50 ug/mL for the item "CCOc1ccc(/C=C/C(N)=S)cc1"
### Response 70.1

---

The following compounds are shown together with reported Activity values.
- Tested on: HCT-8
- protocol-details: Cell cycle arrest in human HCT8 cells assessed as accumulation at G0/G1 phase at 50 ug/mL after 24 hrs by propidium iodide staining-based flow cytometric analysis (reference value: 46.43%)
- Format: ADME
- assay-conditions: hct-8, 24 h
Provide only the numeric value, understood in %.

Here are 5 compounds together with their reported answers.
COc1ccc(/C=C/C(N)=S)cc1; 54.61
Cc1ccc(/C=C/C(N)=S)cc1; 24.16
NNC(=O)c1ccncc1 [ISONIAZID]; 44.12
NC(S)(/C=C/c1ccccc1)NNC(=O)c1ccncc1 (stereo not drawn); 59.95
CCOc1ccc(/C=C/C(N)=S)cc1; 61.33

### Prompt Report the value of Activity obtained on HCT-8 for Cc1ccc(/C=C/C(N)(S)NNC(=O)c2ccncc2)cc1 (stereo not drawn) .
### Response 72.35

### Prompt Report the value of Activity obtained on HCT-8 for COc1ccc(/C=C/C(N)(S)NNC(=O)c2ccncc2)cc1 (stereo not drawn) .
### Response 48.85

### Prompt Report the value of Activity obtained on HCT-8 for CCOc1ccc(/C=C/C(N)(S)NNC(=O)c2ccncc2)cc1 (stereo not drawn) .
### Response 58.14

---

- protocol-details: Induction of apoptosis in human HCT8 cells assessed as viable cells at 50 ug/mL after 24 hrs by Annexin V-FITC and propidium iodide staining-based flow cytometric analysis (reference value: 87.7%)
- Assay type: cell-based, HCT-8
- assay-conditions: read-out: Activity
viability at 24 h, 50 ug/mL vs 50%: less than gives 1; not less than gives -1.

NNC(=O)c1ccncc1; -1

### Prompt For Cc1ccc(/C=C/C(N)(S)NNC(=O)c2ccncc2)cc1 (stereo not given) , is the recorded viability at 24 h, 50 ug/mL below the cut-off of 50%?
### Response -1

### Prompt For "NC(=S)/C=C/c1ccc(Cl)cc1" , is the recorded viability at 24 h, 50 ug/mL below the cut-off of 50%?
### Response 1

### Prompt For "Cc1ccc(/C=C/C(N)=S)cc1" , is the recorded viability at 24 h, 50 ug/mL below the cut-off of 50%?
### Response -1

### Prompt For CCOc1ccc(/C=C/C(N)(S)NNC(=O)c2ccncc2)cc1 (stereo not given) , is the recorded viability at 24 h, 50 ug/mL below the cut-off of 50%?
### Response 1

Where these numbers come from: ChEMBL document CHEMBL2417507
